- assay system: BSA (UniProt P02769)
- Sequence (P02769 25-607 limits assumed): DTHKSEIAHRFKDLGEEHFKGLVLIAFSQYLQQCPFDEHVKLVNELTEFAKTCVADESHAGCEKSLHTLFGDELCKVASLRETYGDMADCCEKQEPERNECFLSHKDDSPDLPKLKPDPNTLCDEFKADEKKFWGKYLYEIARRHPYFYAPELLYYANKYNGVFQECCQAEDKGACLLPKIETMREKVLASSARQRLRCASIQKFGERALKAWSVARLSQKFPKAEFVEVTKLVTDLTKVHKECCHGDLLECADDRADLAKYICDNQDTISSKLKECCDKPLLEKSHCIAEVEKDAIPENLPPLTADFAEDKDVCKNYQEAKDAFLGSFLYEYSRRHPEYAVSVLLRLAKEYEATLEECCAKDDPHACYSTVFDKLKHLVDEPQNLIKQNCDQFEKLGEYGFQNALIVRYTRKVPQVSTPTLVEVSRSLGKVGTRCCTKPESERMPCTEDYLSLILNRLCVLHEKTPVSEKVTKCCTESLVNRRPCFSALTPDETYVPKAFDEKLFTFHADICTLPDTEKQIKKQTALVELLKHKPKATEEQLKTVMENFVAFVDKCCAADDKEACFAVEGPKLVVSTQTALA
- assay details: scFv ELISA
For each of the binders below, state its OD450.
One number for each entry, in OD450.

{"binder": "PcOxP_DB01_H08 (scFv, V domains shown, scFv in periplasmic extract) VH: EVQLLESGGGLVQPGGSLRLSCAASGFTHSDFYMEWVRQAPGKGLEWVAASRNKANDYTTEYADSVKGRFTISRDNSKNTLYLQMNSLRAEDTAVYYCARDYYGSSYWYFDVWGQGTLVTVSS VL: DIQMTQSPSSLSASVGDRVTITCRASESISSSKHKHYLAWYQQKPGKAPKLLIYGASNRYIGVPSRFSGSGSGTDFTLTISSLQPEDFATYYCAQFYVYPLTFGGGTKVEIK", "observed value": 0.09}
{"binder": "PcOxP_DB03_A12 (scFv, V domains shown, scFv in periplasmic extract) VH: EVQLLESGGGLVQPGGSLRLSCAASGFTFSDGYMEWVRQAPGKGLEWVAASRNKANDYTTAYADSVKGRFTISRDNSKNTLYLQMNSLRAEDTAVYYCARDYYGSSYWYFDVWGQGTLVTVSS VL: DIVMTQSPDSLAVSLGERATINCTASESLYSSKHKVHYLAWYQQKPGQPPKLLIYGASNRYIGVPDRFSGSGSGTDFTLTISSLQAEDVAVYYCGQFYSYPLTFGGGTKVEIK", "observed value": 0.07}
{"binder": "PcOxP_DB04_H07 (scFv, V domains shown, scFv in periplasmic extract) VH: EVQLLESGGGLVQPGGSLRLSCAASGFTFEDFYMEWVRQAPGKGLEWVAASRNKANDYTTEYADSVKGRFTISRDNSKNTLYLQMNSLRAEDTAVYYCARDYYGSSYWYFDVWGQGTLVTVSS VL: DIQMTQSPSSLSASVGDRVTITCTASESLYSSKHKVHYLAWYQQKPGKAPKLLIYGASNRVIGVPSRFSGSGSGTDFTLTISSLQPEDFATYYCAQFYSYPLTFGGGTKVEIK", "observed value": 0.09}
{"binder": "PcOxP_DB01_E11 (scFv, V domains shown, scFv in periplasmic extract) VH: EVQLLESGGGLVQPGGSLRLSCAASGFTFSDFYMEWVRQAPGKGLEWVAASRNKANDYVTEYADSVKGRFTISRDNSKNTLYLQMNSLRAEDTAVYYCARDYYGSSYWYFDVWGQGTLVTVSS VL: DIQMTQSPSSLSASVGDRVTITCTASFSLYSSKHKVHYLAWYQQKPGKAPKLLIYGASNRYPGVPSRFSGSGSGTDFTLTISSLQPEDFATYYCAQFYYYPLTFGGGTKVEIK", "observed value": 0.09}

Next binder, please.
Q. Kindly indicate its recorded OD450. Item: PcOxP_DB02_F02 (scFv, V domains shown, scFv in periplasmic extract) VH: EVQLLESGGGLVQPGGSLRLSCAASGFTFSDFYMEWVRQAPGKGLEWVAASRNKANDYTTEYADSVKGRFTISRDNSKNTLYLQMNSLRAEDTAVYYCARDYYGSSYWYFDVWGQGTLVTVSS VL: DIQMTQSPSSLSASVGDRVTITCFASESLYSSKHKVHYLAWYQQKPGKAPKLLIYGASNRGIGVPSRFSGSGSGTDFTLTISSLQPEDFATYYCAQFYSYPLTFGGGTKVEIK
A. 0.11

These entries and their values trace back to patent US20250320312A1.
